Measured values drawn from ChEMBL document CHEMBL3124758 for this set.

Reported values: MIC for Escherichia coli, one per item.
Recorded metric: MIC (µg/mL)

| Compound | MIC, µg/mL |
| --- | --- |
| CC1(C)S[C@@H]2[C@H](NC(=O)[C@H](N)c3ccccc3)C(=O)N2[C@H]1C(=O)O [AMPICILLIN] | 15 |
| Cc1[nH]cc[n+]1Cc1ccc(O)c(/C=N/[C@@H]2CCCC[C@H]2/N=C/c2cc(C[n+]3cc[nH]c3C)ccc2O)c1.[Cl-].[Cl-] (relative stereo) | 17.1 |
| Cc1[nH]cc[n+]1Cc1cc(/C=N/[C@@H]2CCCC[C@H]2/N=C/c2cc(C[n+]3cc[nH]c3C)cc(C(C)(C)C)c2O)c(O)c(C(C)(C)C)c1.[Cl-].[Cl-] (relative stereo) | 13.3 |
| CCCCn1cc[n+](Cc2cc(/C=N/[C@@H]3CCCC[C@H]3/N=C/c3cc(C[n+]4ccn(CCCC)c4)cc(C(C)(C)C)c3O)c(O)c(C(C)(C)C)c2)c1.[Cl-].[Cl-] (relative stereo) | 12.2 |
| CCCCn1cc[n+](Cc2ccc(O)c(/C=N/[C@@H]3CCCC[C@H]3/N=C/c3cc(C[n+]4ccn(CCCC)c4)ccc3O)c2)c1.[Cl-].[Cl-] (relative stereo) | 16.7 |

----------
- System: Pseudomonas aeruginosa
- Protocol details: Antibacterial activity against Pseudomonas aeruginosa ATCC 27853 after 72 hrs by broth micro-dilution method
- Measurement conditions: ATCC 27853, 72 h
Recorded metric: MIC

| Compound | Experimental target | Recorded metric | Reported |
| --- | --- | --- | --- |
| Cc1[nH]cc[n+]1Cc1ccc(O)c(/C=N/[C@@H]2CCCC[C@H]2/N=C/c2cc(C[n+]3cc[nH]c3C)ccc2O)c1.[Cl-].[Cl-] (relative stereo) | Pseudomonas aeruginosa | MIC | > 10000 µg/mL |
| CCCCn1cc[n+](Cc2cc(/C=N/[C@@H]3CCCC[C@H]3/N=C/c3cc(C[n+]4ccn(CCCC)c4)cc(C(C)(C)C)c3O)c(O)c(C(C)(C)C)c2)c1.[Cl-].[Cl-] (relative stereo) | Pseudomonas aeruginosa | MIC | > 5000 µg/mL |
| CCn1cc[n+](Cc2ccc(O)c(/C=N/[C@@H]3CCCC[C@H]3/N=C/c3cc(C[n+]4ccn(CC)c4)ccc3O)c2)c1.[Cl-].[Cl-] (relative stereo) | Pseudomonas aeruginosa | MIC | > 10000 µg/mL |
| CC1(C)S[C@@H]2[C@H](NC(=O)[C@H](N)c3ccccc3)C(=O)N2[C@H]1C(=O)O [AMPICILLIN] | Pseudomonas aeruginosa | MIC | > 1000 µg/mL |
| CCCCn1cc[n+](Cc2ccc(O)c(/C=N/[C@@H]3CCCC[C@H]3/N=C/c3cc(C[n+]4ccn(CCCC)c4)ccc3O)c2)c1.[Cl-].[Cl-] (relative stereo) | Pseudomonas aeruginosa | MIC | > 5000 µg/mL |
| CCn1cc[n+](Cc2cc(/C=N/[C@@H]3CCCC[C@H]3/N=C/c3cc(C[n+]4ccn(CC)c4)cc(C(C)(C)C)c3O)c(O)c(C(C)(C)C)c2)c1.[Cl-].[Cl-] (relative stereo) | Pseudomonas aeruginosa | MIC | > 10000 µg/mL |

# input Checklist item: MIC tested on Pseudomonas aeruginosa, entry Cc1[nH]cc[n+]1Cc1cc(/C=N/[C@@H]2CCCC[C@H]2/N=C/c2cc(C[n+]3cc[nH]c3C)cc(C(C)(C)C)c2O)c(O)c(C(C)(C)C)c1.[Cl-].[Cl-] (relative stereo) , value?
# output > 10000 µg/mL
